Measured TGI, listed per entry.
- Tested on: UO-31 renal
- PROCEDURE_SUMMARY: NCI tumour cell line growth inhibition, 48 h

Below, 5 compounds whose answers are already recorded.
Query :: Quick one: give measured TGI for COc1cc2c(oc(=O)c3cc(C)cc(OC)c32)c2c(C3OC(C)C(O)C(C)(O)C3O)ccc(O)c12 (stereo not given)
Result :: 3.19 µM

Query :: Quick one: give measured TGI for COc1ccc(/C=c2/sc3n(c2=O)NC2(CCCCC2)NN=3)cc1
Result :: > 100 µM

Query :: Quick one: give measured TGI for CC(C)=CC(=O)OC1C(CO)OC(Oc2cc(O)c3c(=O)cc(-c4ccc(O)c(O)c4)oc3c2)C(OC2OC(C)C(O)C(O)C2O)C1O (stereo not given)
Result :: > 100 µM

Query :: Quick one: give measured TGI for CC(=O)OCC1(C)C(OC(C)=O)CCC2(C)C(CC(OC(C)=O)C3=CCOC3=O)C(O)(CO)CCC12 (stereo not given)
Result :: > 100 µM

Query :: Quick one: give measured TGI for COC(=O)C1=CN(CC2=CC(=O)C(C)=CC2=O)C=C(C(=O)OC)C1c1cc(OC)ccc1OC
Result :: 9.44 µM

Note: attention shifts to another entry.
Query :: Quick one: give measured TGI for CSc1ncnc2c1cnn2Cc1cn(CCCCO)nn1
Result :: > 100 µM
